tested on: Clostridium sporogenes DSM 1664; assay: growth (OD595) fold change vs plate DMSO controls (fold change (ratio)); higher = more growth; settings: incubation time: 27 h, anaerobic, 37 °C
Counter-ions that a name gives are not always drawn.
Give growth for every item shown.

stdin: Please give the measured growth for this compound: C[C@@H](c1ncncc1F)[C@](O)(Cn1cncn1)c1ccc(F)cc1F [Voriconazole] (20 µM)
stdout: 0.883

Please give growth, item by item, for the list that follows.
1. COc1ccc(C(=O)NCc2ccc(OCCN(C)C)cc2)cc1OC [Itopride] (20 µM)
2. CN1[C@@H]2CC[C@H]1C[C@@H](OC(c1ccccc1)c1ccccc1)C2 [Benztropine mesylate] (20 µM)
3. CC(C)N1CCN(c2ccc(OCC3COC(Cn4cncn4)(c4ccc(Cl)cc4Cl)O3)cc2)CC1 (centres undefined) [Terconazole] (20 µM)

stdout:
1: 1.15; 2: 1.11; 3: 1.12

---

tested on: Klebsiella aerogenes DSM 30053; assay: fold change of Putrescine concentration vs plate DMSO controls (fold change (ratio)); higher = more amine produced, active = hit call of the paper (significant change in both replicates, either direction); details: incubation time: 27 h, anaerobic, 37 °C
Counter-ions that a name gives are not always drawn.
Property: fold change of Putrescine concentration
Numbers only.

Reference set (3 entries):
stdin: # get_value(readout= fold change of Putrescine concentration, system= Klebsiella aerogenes DSM 30053) for N/C(=N\C(=O)c1nc(Cl)c(N)nc1N)NCc1ccccc1 [Benzamil hydrochloride] (20 µM)
stdout: 0.965

stdin: What fold change of Putrescine concentration appears in the records for this compound with Klebsiella aerogenes DSM 30053? COc1ccc(/C=C/C(=O)Nc2ccccc2C(=O)O)cc1OC [Tranilast] (20 µM)
stdout: 0.994

stdin: Recorded fold change of Putrescine concentration for COC(=O)[C@H]1[C@H]2C[C@@H]3c4[nH]c5cc(OC)ccc5c4CCN3C[C@H]2C[C@@H](OC(=O)c2cc(OC)c(OC)c(OC)c2)[C@@H]1OC [Reserpine] (20 µM) with Klebsiella aerogenes DSM 30053, please?
stdout: 0.983

// moving on: another record for fold change of Putrescine concentration
stdin: Lab request: please report fold change of Putrescine concentration under test system Klebsiella aerogenes DSM 30053 for O=C(CCCl)NCc1ccccc1 [Beclamide] (20 µM)
stdout: 1.01

---

test system: Escherichia coli IAI1; experiment: growth (OD595) fold change vs plate DMSO controls (fold change (ratio)); higher = more growth; details: incubation time: 27 h, anaerobic, 37 °C
Counter-ions that a name gives are not always drawn.
Class MET: growth at least 1. Class NOT MET: growth below 1.

stdin: Is growth for CCOC(=O)c1ccc(N)cc1 [Benzocaine] (20 µM) at or above 1?
stdout: MET

Then this compound:
stdin: growth >= 1 for CO/N=C(\C(=O)N[C@@H]1C(=O)N2C(C(=O)O)=C(COC(N)=O)CS[C@H]12)c1ccco1 [Cefuroxime sodium salt] (20 µM) ?
stdout: NOT MET

---

Give growth for every item shown.
system: Ruminococcus gnavus DSM 108212; assay: growth (OD595) fold change vs plate DMSO controls (fold change (ratio)); higher = more growth; details: incubation time: 27 h, anaerobic, 37 °C
Structures can show the parent of a compound that is named as a salt.
Numbers only.

Look over these answered cases.
stdin: For Ruminococcus gnavus DSM 108212, provide growth of CC(=O)O[C@]1(C(C)=O)CC[C@H]2[C@@H]3C=C(Cl)C4=CC(=O)CC[C@]4(C)[C@H]3CC[C@@]21C [Chlormadinone acetate] (20 µM) please.
stdout: 0.974

stdin: Request: growth, test system Ruminococcus gnavus DSM 108212, entry CCn1nc(C(=O)O)c(=O)c2cc3c(cc21)OCO3 [Cinoxacin] (20 µM)
stdout: 1.06

stdin: Short answer please: growth, Ruminococcus gnavus DSM 108212, entry CCN(CC)CCNC(=O)c1cc(S(C)(=O)=O)ccc1OC [Tiapride hydrochloride] (20 µM)
stdout: 0.09

// next item, growth requested
stdin: # returns recorded growth (system: Ruminococcus gnavus DSM 108212) for O=C1NCCN1c1ncc([N+](=O)[O-])s1 [Niridazole] (20 µM)
stdout: 0.0406

---

tested on: Ruminococcus gnavus DSM 108212; test: growth (OD595) fold change vs plate DMSO controls (fold change (ratio)); higher = more growth; conditions: incubation time: 27 h, anaerobic, 37 °C
Where a name gives a salt, the structure may show the parent alone.
Given measured growth, output Condition met if it is greater than or equal to 1 and Condition not met if not.

stdin: Please tell me: is the molecule CC(=O)O[C@]1(C(C)=O)CC[C@H]2[C@@H]3C=C(C)C4=CC(=O)CC[C@@H]4[C@H]3CC[C@@]21C [Nomegestrol acetate] (20 µM) at or over 1 in terms of growth?
stdout: Condition met

stdin: Say whether CN(C)CCCO[C@@H]1[C@H]2OC(C)(C)O[C@H]2O[C@@H]1[C@H](O)CO [Amiprilose hydrochloride] (20 µM) shows growth of 1 or more.
stdout: Condition met

# next molecule below
stdin: Does the molecule COc1ccc(C(=O)CC(=O)c2ccc(C(C)(C)C)cc2)cc1 [Avobenzone] (20 µM) have recorded growth that is 1 or more?
stdout: Condition not met

---

tested on: Clostridium sporogenes DSM 1664; test: growth (OD595) fold change vs plate DMSO controls (fold change (ratio)); higher = more growth; details: incubation time: 27 h, anaerobic, 37 °C
Structures can show the parent of a compound that is named as a salt.
Exercise: for every item that follows, state its recorded growth.
Answers are plain numbers.

Some solved cases for reference:
stdin: Report growth for Cc1c(NC(C)C)c(=O)n(-c2ccccc2)n1C [Isopyrin hydrochloride] (20 µM) please.
stdout: 1.12

stdin: // growth lookup, key: Cn1c(=O)c2c(ncn2CC(O)CO)n(C)c1=O (stereo not drawn) [Diprophylline] (20 µM)
stdout: 0.915

stdin: Fill in: growth of O=C1CN2Cc3c(ccc(Cl)c3Cl)N=C2N1 [Anagrelide] (20 µM) is ___
stdout: 0.955

stdin: Reported growth, compound CCc1cc(Cl)c(OC)c(C(=O)NC[C@@H]2CCCN2CC)c1O [(S,-) Eticlopride hydrochloride] (20 µM) : ____
stdout: 0.973

stdin: Which measured growth value corresponds to CC(=O)CC(c1ccccc1)c1c(O)c2ccccc2oc1=O (stereo not drawn) (20 µM) ?
stdout: 1.05

Can you give me growth for all of these, one by one?
1. CC[N+](C)(C)c1cccc(O)c1 [Edrophonium chloride] (20 µM)
2. CCOC(=O)O[C@]1(C(=O)COC(=O)CC)CC[C@H]2[C@@H]3CCC4=CC(=O)C=C[C@]4(C)[C@H]3[C@@H](O)C[C@@]21C [Prednicarbate] (20 µM)

stdout:
1.07
1.04

stdin: What does the data say about its growth? Entry: OC(CCN1CCCCC1)(c1ccccc1)C1CCCCC1 (stereo not drawn) [Trihexyphenidyl-D,L hydrochloride] (20 µM)
stdout: 1.05

---

Field: fold change of 2-Phenylethylamine concentration. Provide a value for each of the molecules that follow.
tested on: Ruminococcus gnavus DSM 108212; assay: fold change of 2-Phenylethylamine concentration vs plate DMSO controls (fold change (ratio)); higher = more amine produced, active = hit call of the paper (significant change in both replicates, either direction); conditions: incubation time: 27 h, anaerobic, 37 °C
Where a name gives a salt, the structure may show the parent alone.
One number for each entry.

List reported fold change of 2-Phenylethylamine concentration for each of these molecules:
1. Cc1cc2cc3c(C)cc(=O)oc3c(C)c2o1 [Trioxsalen] (20 µM)
2. CN(C)CCOC(=O)COc1ccc(Cl)cc1 [Meclofenoxate hydrochloride] (20 µM)
3. CC(=O)Nc1ccc(CC(=O)O)cc1 [Actarit] (20 µM)
4. O=C(O)c1cc(=O)c2ccccc2o1 [Chromocarb] (20 µM)
5. O=C1NCN(c2ccccc2)C12CCN(CCCC(c1ccc(F)cc1)c1ccc(F)cc1)CC2 [Fluspirilene] (20 µM)
6. CC(C)NC[C@H](O)COc1ccc(CC(N)=O)cc1 [(S,-) Atenolol] (20 µM)
7. NC(=O)c1cc[n+](CC2=C(C(=O)O)N3C(=O)[C@@H](NC(=O)C(c4ccccc4)S(=O)(=O)[O-])[C@H]3SC2)cc1 (some centres not stated) [Cefsulodin Sodium Salt Hydrate] (20 µM)

stdout:
1: 0.936; 2: 0.895; 3: 0.944; 4: 0.974; 5: 0.884; 6: 0.909; 7: 0.836

// batch mode: one fold change of 2-Phenylethylamine concentration value per listed entry
1. NS(=O)(=O)c1cc(Cl)c(Cl)c(S(N)(=O)=O)c1 [Dichlorphenamide] (20 µM)
2. OC[C@H]1O[C@@](CO)(O[C@H]2O[C@H](CO)[C@@H](O)[C@H](O)[C@H]2O)[C@@H](O)[C@@H]1O [Sucrose] (50 µM)
3. Cc1ccccc1OCC(O)CO (configuration not stated) [Mephenesin] (20 µM)
4. CCN1CCC[C@H]1CNC(=O)c1c(O)c(Cl)cc(Cl)c1OC [Raclopride] (20 µM)
5. CCCSc1nc(N[C@@H]2C[C@H]2c2ccc(F)c(F)c2)c2nnn([C@@H]3C[C@H](OCCO)[C@@H](O)[C@H]3O)c2n1 [Ticagrelor] (20 µM)

stdout:
1. 0.54
2. 1.12
3. 1.06
4. 0.991
5. 0.802

Report fold change of 2-Phenylethylamine concentration for every entry below.
1. C/C=C(/C(=C/C)c1ccc(O)cc1)c1ccc(O)cc1 [Dienestrol] (20 µM)
2. C[N+](C)(CCOc1ccccc1)Cc1ccccc1.O=C([O-])c1cc2ccccc2cc1O [Bephenium hydroxynaphthoate] (20 µM)
3. C=CC1=C(C(=O)O)N2C(=O)[C@@H](NC(=O)/C(=N\O)c3csc(N)n3)[C@H]2SC1 [Cefdinir] (20 µM)
4. COc1ccccc1OCCNCC(O)COc1cccc2[nH]c3ccccc3c12 (configuration not stated) [Carvedilol] (20 µM)
5. c1ccc(C2CN3CCSC3=N2)cc1 (configuration not stated) [Tetramisole hydrochloride] (20 µM)

stdout:
0.344
1.06
0.0439
0.998
1.03
